experiment: protease stability score; higher = more stable; yeast display proteolysis, trypsin and chymotrypsin;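 further: log10 excess protease needed over predicted unfolded state with 0 meaning unfolded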
Parameter: protease stability score. Scope: all listed entries.
Please give only the number in your answer, with no unit.

EEDLLEVMERLYQALRENDPKKAMENVDPNARFKVGNKEYRGREQQSKEDTKKRDKMRVDMRIESMEIHGETVHIDATVVNQVNGQPYRQKVIIRARLHNGQIQELEFQLDPSVQEKVRQ; 0.538

Requested read-out: protease stability score. Entry: DESDQDRFRKYLHQLQNGDEKKLRKNMDPNVKFEVGEKRYEGREEYAKKVRQEVEEMRFSFKIHDIEVHNGRVTVEFEVTYEHNGRPDHEHVRIEMEVHNGKIRSVRQESDK
0.043

Requested read-out: protease stability score. Entry: DEEQAKTVMEEWAKAVQKGNTEKLKKLYKPDVEWKNGDKKNQGVDQVETQVKKAKDQGVEFQVRKAEVKGNRVRVVYDAKVGDKTVTFTVEFDVDGGKIERVRVEVDEEAKKVQKQG
0.322
